The values you see were collected from PubChem BioAssay (NCI).

Tested on: EKVX NSCLC
Assay text: NCI tumour cell line growth inhibition, 48 h; in the data active = GI50 below about 0.43 µM; inactive = the rest
*1 amine or outer side, *2 acyl side, *3 side chain or, on linkers, in order; H or OH if unused. Where a SMILES comes first, the peptide text is derived from it. Bridges are numbered along the chain shown (N, C = ends). Roman numbers before positions name the chains, in order. X23 = CCCCCCCCCCCCCCC(=O)NC(CCCCN[*:2])C(=O)CN1CCCC1C(=O)[*:1]
Pick from active, inactive when you respond.

compound=CCOC(=O)c1c(C(F)(F)F)n([O-])c2ccc(Cl)cc2[n+]1=O group=inactive
compound="CCCCCCCCCCCCCCC(=O)NC(CCCCNC(=O)C1CCCN1C(=O)C(CCCCN)NC(=O)C(CCCCN)NC(=O)C(CCCCN)NC(=O)C(CCCNC(=N)N)NC(=O)C(CCCCN)NC(=O)C(N)C(C)C)C(=O)CN1CCCC1C(=O)NCC(=O)NC(Cc1ccccc1)C(=O)N1CCCC1C(=O)NC(CO)C(=O)NC(Cc1ccc(O)cc1)C(=O)NC(CCCCN)C(=O)NC(CC(C)C)C(=O)NC(CCCNC(=N)N)C(=O)N1CCCC1C(=O)NCC(N)=O (stereo not drawn) (I: GFPSYKLRPG-NH2 / II: H-VKRKKKP; linker I:N-II:C via X23; configuration not given here)" group=inactive
compound=COc1cc2c(cc1OCc1ccccc1)N=C[C@@H]1C[C@@H](F)CN1C2=O group=inactive

Prompt line: Which outcome did this test record for the compound CC(=O)NC1CCCN(O)C(=O)/C=C(/C)CCOC(=O)C(NC(C)=O)CCCN(O)C(=O)/C=C(/C)CCOC(=O)C(NC(C)=O)CCCN(O)C(=O)/C=C(/C)CCOC1=O.[Fe] (stereo not drawn) ?
Response line: inactive

Prompt line: Which outcome did this test record for the compound O=[N+]([O-])c1ccc(Oc2cccc(C(F)(F)F)c2)c([N+](=O)[O-])c1 ?
Response line: inactive

----------
Tested on: HL-60(TB) leukemia
Assay text: NCI tumour cell line growth inhibition, 48 h; in the data active = GI50 below about 0.43 µM; inactive = the rest
Pick from active, inactive when you respond.

Consider the following illustrative entries.
smiles_repr=COc1ccccc1N(C(C)=O)C1=C(Cl)C(=O)c2ccccc2C1=O tested_on="HL-60(TB) leukemia" group=inactive
smiles_repr=CC(=O)Nc1c(I)c(C(=O)O)c(I)c(N(C)C(C)=O)c1I tested_on="HL-60(TB) leukemia" group=inactive
smiles_repr=Cc1ccc(-c2c3c(N)nc(-c4ccncc4)nc3nc3c2c(C)nn3-c2ccccc2)cc1 tested_on="HL-60(TB) leukemia" group=inactive
smiles_repr=CC[C@@]1(O)C(=O)OCc2c1cc1n(c2=O)Cc2cc3c(Cl)c4c(cc3nc2-1)OCO4 tested_on="HL-60(TB) leukemia" group=active

Now consider the entry below.
Prompt line: Which outcome did this test record for the molecule O=C1/C(=C\c2ccc([N+](=O)[O-])cc2)CS(=O)(=O)C/C1=C/c1ccc([N+](=O)[O-])cc1 ?
Response line: active

----------
Test system: OVCAR-5 ovarian
Assay text: NCI tumour cell line growth inhibition, 48 h
// TGI lookup, one value per entry

compound="[CH3][Sn]([CH3])([CH3])[O]C(=O)C(O)c1ccccc1 (stereo not given)" measured_metric=TGI value="76.4 µM"
compound="CC(=O)O[C@@H]1[C@@H](C)[C@]2(CC(c3ccoc3)OC2O)C2CCC3O[C@]3(C)[C@]2(C)[C@@H]1OC(C)=O (stereo not given in full)" measured_metric=TGI value="> 100 µM"

The measured TGI associated with Cc1no[n+]([O-])c1/C=N/NS(=O)(=O)c1ccccc1 reads > 100 µM

The measured TGI associated with NC(Cn1ccc(=O)c(O)c1)C(=O)O (stereo not given) reads > 100 µM

The measured TGI associated with COc1cc(-c2ccc(Nc3ccccc3C(=O)O)c(OC)c2)ccc1Nc1ccccc1C(=O)O reads > 87.5 µM

The measured TGI associated with CC1C2CC(CC2O)C1(C)C (stereo not given) reads > 100 µM

----------
Test system: NCI-H522 lung
Assay text: NCI tumour cell line growth inhibition, 48 h
*1 amine or outer side, *2 acyl side, *3 side chain or, on linkers, in order; H or OH if unused. Where a SMILES comes first, the peptide text is derived from it. Bridges are numbered along the chain shown (N, C = ends). Roman numbers before positions name the chains, in order. X23 = CCCCCCCCCCCCCCC(=O)NC(CCCCN[*:2])C(=O)CN1CCCC1C(=O)[*:1]
Measured metric: GI50

The measured GI50 associated with CCCCCCCCCCCCCCC(=O)NC(CCCCNC(=O)C1CCCN1C(=O)C(CCCCN)NC(=O)C(CCCCN)NC(=O)C(CCCCN)NC(=O)C(CCCNC(=N)N)NC(=O)C(CCCCN)NC(=O)C(N)C(C)C)C(=O)CN1CCCC1C(=O)NCC(=O)NC(Cc1ccccc1)C(=O)N1CCCC1C(=O)NC(CO)C(=O)NC(Cc1ccc(O)cc1)C(=O)NC(CCCCN)C(=O)NC(CC(C)C)C(=O)NC(CCCNC(=N)N)C(=O)N1CCCC1C(=O)NCC(N)=O (stereo unspecified) (I: GFPSYKLRPG-NH2 / II: H-VKRKKKP; linker I:N-II:C via X23; configuration not given here) reads 21.8 µM

----------
System: HCT-116 colon
Assay text: NCI tumour cell line growth inhibition, 48 h; in the data active = GI50 below about 0.43 µM; inactive = the rest
Pick from yes (1) = active, no (0) = inactive when you respond.

Consider the following illustrative entries.
compound=O=C(N/N=C/c1ccncc1)c1ccc(C(F)(F)F)nc1Nc1cccc(C(F)(F)F)c1 group="no (0)"
compound=O=C1c2ccccc2-c2c1c1c(O)cccc1n2CCCc1ccccc1 group="no (0)"
compound="CC(=O)NC1CCCN(O)C(=O)/C=C(/C)CCOC(=O)C(NC(C)=O)CCCN(O)C(=O)/C=C(/C)CCOC(=O)C(NC(C)=O)CCCN(O)C(=O)/C=C(/C)CCOC1=O.[Fe] (stereo not given)" group="no (0)"
compound=CC(=O)Nc1cc(C(c2ccccc2)c2ccccc2)cc(C(c2ccccc2)c2ccccc2)c1C group="no (0)"
compound=O=Cc1c[nH]c2ccc(-c3csc4ccccc34)cc12 group="no (0)"

Prompt line: Which outcome did this test record for the compound Nc1cccc2c1CN(C1CCC(=O)NC1=O)C2=O (stereo not given) ?
Response line: no (0)

Prompt line: Which outcome did this test record for the compound O=[N+]([O-])c1ccc(N/N=C/c2ccccc2O)nc1 ?
Response line: yes (1)

Prompt line: Which outcome did this test record for the compound COc1ccccc1N(C(C)=O)C1=C(Cl)C(=O)c2ccccc2C1=O ?
Response line: no (0)

Prompt line: Which outcome did this test record for the compound COC(=O)c1c2c(c(C)[n+]([O-])c1C)C(=O)C=C(NCc1ccc(Br)cc1)C2=O ?
Response line: yes (1)

Prompt line: Which outcome did this test record for the compound NC(Cc1ccc(O)cc1)C(=O)N/N=C/c1ccc(N(CCCl)CCCl)cc1 (stereo not given) ?
Response line: no (0)

----------
Tested on: HCT-15 colon
Assay text: NCI tumour cell line growth inhibition, 48 h
Measured metric: TGI

Consider the reported TGI for these compounds:
compound=O=C(NC1CCNCC1)c1[nH]ncc1NC(=O)c1c(Cl)cccc1Cl measured_metric=TGI value="> 100 µM"
compound="C=CCC1(O)C(=O)OC2C(O)COC21O (stereo not given)" measured_metric=TGI value="> 100 µM"
compound=O=C1NC(=O)/C(=C/c2ccc(S(=O)(=O)N/N=C/c3ccccc3)cc2)N1 measured_metric=TGI value="> 100 µM"

Form: item CC(=O)NC1CCCN(O)C(=O)/C=C(/C)CCOC(=O)C(NC(C)=O)CCCN(O)C(=O)/C=C(/C)CCOC(=O)C(NC(C)=O)CCCN(O)C(=O)/C=C(/C)CCOC1=O.[Fe] (stereo not given) ; test system HCT-15 colon; TGI: > 100 µM

Form: item CC(C)(C)OC(=O)N(CCCCNC(=O)c1ccccc1)CCCNC(=O)c1ccccc1 ; test system HCT-15 colon; TGI: > 100 µM

Form: item Clc1cc2nnn(C3CCCCO3)c2cc1Cl (stereo not given) ; test system HCT-15 colon; TGI: > 100 µM

Form: item Cc1ccc(C)c(NC(=O)/C(=N\N)C(c2cnc3ccc([N+](=O)[O-])cc3n2)[N+](=O)[O-])c1 (stereo not given) ; test system HCT-15 colon; TGI: > 100 µM

Form: item O=C1c2ccccc2C(=O)c2c(NCCNCCO)ccc(NCCNCCO)c21 ; test system HCT-15 colon; TGI: > 100 µM

Form: item Nc1nccc2c1ncn2C1C=C(CO)C(O)C1O (stereo not given) ; test system HCT-15 colon; TGI: > 1000 µM

Form: item O=C(NCCSSCCNC(=O)/C(Cc1ccc(O)c(Br)c1)=N/O)/C(Cc1ccc(O)c(Br)c1)=N/O ; test system HCT-15 colon; TGI: 14.4 µM

----------
// TGI lookup, one value per entry
Tested on: MOLT-4 leukemia
Assay text: NCI tumour cell line growth inhibition, 48 h

The measured TGI associated with NS(=O)(=O)c1ccc(N=Nc2ccc(O)c(O)c2)cc1 reads > 100 µM

The measured TGI associated with Cc1ccc(S(=O)(=O)Nc2cccc(C)c2C)cc1 reads > 100 µM
